Form field: pIC50 (one value per entry).
Assay: Inhibition of Enterobacter cloacae KPC-2 pre-incubated with enzyme for 5 mins before nitrocefin substrate addition by colorimetric assay
pIC50: −log10 of the molar value.
result.type: pIC50

>>> obs_value("NC(=O)[C@@H]1[C@H]2C[C@H]2[C@@H]2CN1C(=O)N2OS(=O)(=O)[O-].[Na+]")
5.17
>>> obs_value("NC(=O)[C@@H]1[C@@H]2C[C@@H]2[C@@H]2CN1C(=O)N2OS(=O)(=O)[O-].[Na+]")
6.07
>>> obs_value("C[C@]1(Cn2ccnn2)[C@H](C(=O)O)N2C(=O)C[C@H]2S1(=O)=O")
4.41
